assay: Therapeutic ratio FD50/ED50 (discoordination against head-twitches); conditions: mouse, in vivo
endpoint: selectivity ratio

State its selectivity ratio: NC[C@H](O)c1ccc(O)c(O)c1
> 3.3

----------
assay: Therapeutic ratio FD50/ED50 (discoordination against head-twitches); conditions: mouse, in vivo, po
endpoint: selectivity ratio
Give the figure only, with no unit attached.

[
  {
    "compound": "CCO [Ethanol, ethanol]",
    "recordedValue": 0.6
  },
  {
    "compound": "N[C@@H](Cc1ccc(O)c(O)c1)C(=O)O [L-DOPA, L-β-3,4-dihydroxyphenylalanine]",
    "recordedValue": 3.5
  }
]

Alright, here's another compound for you.
State its selectivity ratio: CCCC(C)C1(CC)C(=O)NC(=O)NC1=O (stereo not drawn) [Pentobarbitone sodium]
0.4

----------
assay: Discoordination: ability to remain for 1 minute on a rotating drum; settings: mouse, in vivo, icv or intrathecal
endpoint: TD50 at 35 min

State its TD50 at 35 min: NC[C@H](O)c1ccc(O)c(O)c1
> 0.01 mg/kg

----------
assay: Discoordination: ability to remain for 1 minute on a rotating drum; conditions: mouse, in vivo, po
endpoint: TD50 at 1 h

// below: answered compounds
[
  {
    "compound": "CCCC(C)C1(CC)C(=O)NC(=O)NC1=O (stereo not drawn) [Pentobarbitone sodium]",
    "TD50 at 1 h": "91 mg/kg"
  },
  {
    "compound": "CCO [Ethanol, ethanol]",
    "TD50 at 1 h": "2500 mg/kg"
  }
]

Alright, here's another compound for you.
State its TD50 at 1 h: N[C@@H](Cc1ccc(O)c(O)c1)C(=O)O [L-DOPA, L-β-3,4-dihydroxyphenylalanine]
> 800 mg/kg
